# Test system: Leishmania panamensis
# ASSAY_NOTES: Antileshmanial activity against EpiR/GFP fused Leishmania panamensis MHOM/CO/87/UA140 intracellular amastigotes infected in human […] cells after 72 hrs by flow cytometric method
# Format: functional, cell-based
# MEASUREMENT_PARAMETERS: MHOM/CO/87/UA140, 72 h
Attribute: log10 EC50
Transform log10 | Measure EC50 | Unit µg/mL

Query: Would you kindly share the measured log10 EC50 for O=CN1N=C(c2ccc(Br)cc2)CC1c1cccc(Nc2ccnc3cc(Cl)ccc23)c1 (stereo not drawn) ?
Reply: 0.38

Query: Would you kindly share the measured log10 EC50 for COc1ccc(C2=NN(C(C)=O)C(c3cccc(Nc4ccnc5cc(Cl)ccc45)c3)C2)cc1 (stereo not drawn) ?
Reply: 0.47

Query: Would you kindly share the measured log10 EC50 for COc1cc(C2=NN(C(C)=O)C(c3cccc(Nc4ccnc5cc(Cl)ccc45)c3)C2)cc(OC)c1OC (stereo not drawn) ?
Reply: 0.29

Query: Would you kindly share the measured log10 EC50 for Clc1ccc(N2N=C(c3ccccc3)CC2c2cccc(Nc3ccnc4cc(Cl)ccc34)c2)cc1 (stereo not drawn) ?
Reply: 1.20

Query: Would you kindly share the measured log10 EC50 for "Cc1ccc(C(=O)/C=C/c2cccc(Nc3ccnc4cc(Cl)ccc34)c2)cc1" ?
Reply: 0.08
